These records show GI50 for SK-OV-3.

compound	GI50 [µM]
Cc1[nH]c(=S)sc1C(=O)/C=C/c1ccc(Br)cc1 [2g]	13.8
Cc1[nH]c(=S)sc1C(=O)/C=C/c1cccc([N+](=O)[O-])c1 [2h]	5.89
Cc1[nH]c(=S)sc1C(=O)/C=C/c1ccc(Cl)cc1 [2f]	15.8
COc1cc(/C=C/C(=O)c2sc(=S)[nH]c2C)cc(OC)c1OC [2p]	7.41
COc1ccc(/C=C\c2cc(OC)c(OC)c(OC)c2)cc1O [CA-4, Combretastatin-A4, reference compound]	28.4
Cc1[nH]c(=S)sc1C(=O)/C=C/c1ccc(F)cc1 [2c]	11
Cc1[nH]c(=S)sc1C(=O)/C=C/c1ccc([N+](=O)[O-])cc1 [2i]	18.6
Cc1[nH]c(=S)sc1C(=O)/C=C/c1cccc(Cl)c1 [2e]	17.4

====

The reader will find reported Log10GI50 _MID values listed item by item below.
System: 60 human tumor cell lines panel
Experiment: NCI-60 anticancer screen, whole panel (means and ranges over the cell lines)
Format: cell-based
Settings: five doses; mean graph midpoint over all cell lines

molecule	unit_annotation	Log10GI50 _MID
Cc1[nH]c(=S)sc1C(=O)/C=C/c1cccc(Cl)c1 [2e]	Molar	-5.17
Cc1[nH]c(=S)sc1C(=O)/C=C/c1cccc([N+](=O)[O-])c1 [2h]	Molar	-5.37
Cc1[nH]c(=S)sc1C(=O)/C=C/c1ccc(Cl)cc1 [2f]	Molar	-5.13
Cc1[nH]c(=S)sc1C(=O)/C=C/c1ccc([N+](=O)[O-])cc1 [2i]	Molar	-5.13
Cc1[nH]c(=S)sc1C(=O)/C=C/c1ccc(Br)cc1 [2g]	Molar	-5.31
Cc1[nH]c(=S)sc1C(=O)/C=C/c1ccc(F)cc1 [2c]	Molar	-5.23

====

Readings of pIC50 for the listed molecules
System: UO-31
Test: NCI-60 anticancer screen (SRB; single dose and five doses)
Details: Homo sapiens, UO-31
pIC50: −log10 of the molar value.
experimental_endpoint: pIC50

smi	val
COc1cc(/C=C/C(=O)c2sc(=S)[nH]c2C)cc(OC)c1OC	5.11
Cc1[nH]c(=S)sc1C(=O)/C=C/c1cccc([N+](=O)[O-])c1	4.97
Cc1[nH]c(=S)sc1C(=O)/C=C/c1ccc(Cl)cc1	4.95
Cc1[nH]c(=S)sc1C(=O)/C=C/c1cccc(Cl)c1	5.54

====

// NCI-H226 GI50 records

smi	unit_annotation	GI50
COc1cc(/C=C/C(=O)c2sc(=S)[nH]c2C)cc(OC)c1OC	µM	3.63
Cc1[nH]c(=S)sc1C(=O)/C=C/c1ccc([N+](=O)[O-])cc1	µM	15.6
Cc1[nH]c(=S)sc1C(=O)/C=C/c1ccc(Br)cc1	µM	4.13
Cc1[nH]c(=S)sc1C(=O)/C=C/c1ccc(Cl)cc1	µM	13.8
Cc1[nH]c(=S)sc1C(=O)/C=C/c1cccc(Cl)c1	µM	4.37
Cc1[nH]c(=S)sc1C(=O)/C=C/c1ccc(F)cc1	µM	5.27
Cc1[nH]c(=S)sc1C(=O)/C=C/c1cccc([N+](=O)[O-])c1	µM	11.2

====

Collected CC50 values appear next to each entry.
System: IGROV1
Experiment: NCI-60 anticancer screen (SRB; single dose and five doses)
Conditions: Homo sapiens, IGROV-1, read-out: LC50

compound	CC50
Cc1[nH]c(=S)sc1C(=O)/C=C/c1cccc([N+](=O)[O-])c1	47.9 µM
Cc1[nH]c(=S)sc1C(=O)/C=C/c1cccc(Cl)c1	> 100 µM
Cc1[nH]c(=S)sc1C(=O)/C=C/c1ccc([N+](=O)[O-])cc1	50.8 µM
Cc1[nH]c(=S)sc1C(=O)/C=C/c1ccc(F)cc1	62.3 µM
COc1ccc(/C=C\c2cc(OC)c(OC)c(OC)c2)cc1O [CA-4, Combretastatin-A4, reference compound]	> 100 µM
COc1cc(/C=C/C(=O)c2sc(=S)[nH]c2C)cc(OC)c1OC	> 100 µM
Cc1[nH]c(=S)sc1C(=O)/C=C/c1ccc(Cl)cc1	93.3 µM
Cc1[nH]c(=S)sc1C(=O)/C=C/c1ccc(Br)cc1	53.4 µM

====

System: COLO 205
Assay: NCI-60 anticancer screen (SRB; single dose and five doses)
Details: Homo sapiens, COLO 205, read-out: LC50
# note: exactly 70 µM is not below, so it is label 0; use label 1 for CC50 strictly under it

compound	group_label
Cc1[nH]c(=S)sc1C(=O)/C=C/c1ccc(F)cc1	label 0
Cc1[nH]c(=S)sc1C(=O)/C=C/c1ccc(Br)cc1	label 0
Cc1[nH]c(=S)sc1C(=O)/C=C/c1ccc(Cl)cc1	label 0
Cc1[nH]c(=S)sc1C(=O)/C=C/c1ccc([N+](=O)[O-])cc1	label 0
Cc1[nH]c(=S)sc1C(=O)/C=C/c1cccc(Cl)c1	label 1
COc1ccc(/C=C\c2cc(OC)c(OC)c(OC)c2)cc1O [CA-4, Combretastatin-A4, reference compound]	label 0
Cc1[nH]c(=S)sc1C(=O)/C=C/c1cccc([N+](=O)[O-])c1	label 1

====

Test system: UACC-257
Test: NCI-60 anticancer screen (SRB; single dose and five doses)
Details: Homo sapiens, UACC-257, read-out: TGI
# IC (TGI) per entry

smi	experimental_system	unit_annotation	IC (TGI)
COc1cc(/C=C/C(=O)c2sc(=S)[nH]c2C)cc(OC)c1OC	UACC-257	µM	21.9
Cc1[nH]c(=S)sc1C(=O)/C=C/c1ccc(Cl)cc1	UACC-257	µM	27.5
Cc1[nH]c(=S)sc1C(=O)/C=C/c1cccc([N+](=O)[O-])c1	UACC-257	µM	13.5
Cc1[nH]c(=S)sc1C(=O)/C=C/c1ccc(Br)cc1	UACC-257	µM	24.2
Cc1[nH]c(=S)sc1C(=O)/C=C/c1ccc([N+](=O)[O-])cc1	UACC-257	µM	30.4
Cc1[nH]c(=S)sc1C(=O)/C=C/c1ccc(F)cc1	UACC-257	µM	26.7
Cc1[nH]c(=S)sc1C(=O)/C=C/c1cccc(Cl)c1	UACC-257	µM	14.8

====

// reported CC50 for each item listed
Tested on: MDA-MB-231/ATCC
Assay: NCI-60 anticancer screen (SRB; single dose and five doses)
Settings: Homo sapiens, MDA-MB-231, read-out: LC50
experimental_endpoint: CC50 (µM)

smi	bound_sign	val
Cc1[nH]c(=S)sc1C(=O)/C=C/c1ccc(Br)cc1	=	50.9
Cc1[nH]c(=S)sc1C(=O)/C=C/c1cccc([N+](=O)[O-])c1	=	44.7
Cc1[nH]c(=S)sc1C(=O)/C=C/c1ccc(F)cc1	=	66.1
Cc1[nH]c(=S)sc1C(=O)/C=C/c1ccc([N+](=O)[O-])cc1	=	51.5
COc1cc(/C=C/C(=O)c2sc(=S)[nH]c2C)cc(OC)c1OC	>	100
Cc1[nH]c(=S)sc1C(=O)/C=C/c1cccc(Cl)c1	=	39.8
Cc1[nH]c(=S)sc1C(=O)/C=C/c1ccc(Cl)cc1	=	61.7

====

System: MCF7
Test: NCI-60 anticancer screen (SRB; single dose and five doses)
Conditions: Homo sapiens, MCF7, read-out: TGI
experimental_endpoint: IC (TGI) (µM)

smi	experimental_endpoint	unit_annotation	val
Cc1[nH]c(=S)sc1C(=O)/C=C/c1ccc(Br)cc1	IC (TGI)	µM	10.6
Cc1[nH]c(=S)sc1C(=O)/C=C/c1ccc(Cl)cc1	IC (TGI)	µM	13.2
Cc1[nH]c(=S)sc1C(=O)/C=C/c1ccc(F)cc1	IC (TGI)	µM	11.4
COc1cc(/C=C/C(=O)c2sc(=S)[nH]c2C)cc(OC)c1OC	IC (TGI)	µM	10.7
Cc1[nH]c(=S)sc1C(=O)/C=C/c1cccc(Cl)c1	IC (TGI)	µM	12.3
Cc1[nH]c(=S)sc1C(=O)/C=C/c1ccc([N+](=O)[O-])cc1	IC (TGI)	µM	11.7
Cc1[nH]c(=S)sc1C(=O)/C=C/c1cccc([N+](=O)[O-])c1	IC (TGI)	µM	9.77

====

Reported GI50, SK-MEL-2.

smi	GI50 / µM
Cc1[nH]c(=S)sc1C(=O)/C=C/c1ccc([N+](=O)[O-])cc1	13.6
Cc1[nH]c(=S)sc1C(=O)/C=C/c1ccc(Cl)cc1	13.8
Cc1[nH]c(=S)sc1C(=O)/C=C/c1cccc([N+](=O)[O-])c1	12.6
Cc1[nH]c(=S)sc1C(=O)/C=C/c1ccc(F)cc1	11.6
Cc1[nH]c(=S)sc1C(=O)/C=C/c1ccc(Br)cc1	5.87
COc1cc(/C=C/C(=O)c2sc(=S)[nH]c2C)cc(OC)c1OC	3.09
Cc1[nH]c(=S)sc1C(=O)/C=C/c1cccc(Cl)c1	10.5

Numbers sourced from paper PMC11435058.
